- System: N. gonorrhoeae F89 (high-level cefixime and ceftriaxone resistance)
- assay name: Disk diffusion assay, N. gonorrhoeae F89
- Assay type: cell-based
- recorded conditions: Neisseria gonorrhoeae, 20 μg per disc; disc 6 mm; read-out: diameter of the growth inhibition, F89
quantity measured: zone of inhibition at 20 µg/disc (mm)
One number for each entry, in mm.

// solved cases for zone of inhibition at 20 µg/disc follow
| compound | endpoint result |
| --- | --- |
| C[C@@](O)(C(F)F)[C@H](NC(=O)CCc1ccc(-c2ccccc2)cc1)C(=O)NO [Example 14] | 34 |
| C[C@@](O)(C(F)F)[C@H](NCc1ccc(-c2ccc(OCCN3CCOCC3)cc2)cc1)C(=O)NO [Example 145] | 21 |
| CC(CCc1ccc(-c2ccccc2)cc1)(C(=O)NO)C(C)(O)C(F)F (single isomer, unassigned) [Example 3 Isomer A] | 33 |

// each compound listed below needs its zone of inhibition at 20 µg/disc
1. C[C@@](O)(C(F)F)[C@H](NCCCc1ccc(-c2ccccc2)cc1)C(=O)NO [Example 11]
2. C[C@@](O)(C(F)F)[C@H](NCc1ccc(-c2ccccc2)cc1O)C(=O)NO [Example 141]
3. C[C@@](O)(C(F)F)[C@H](NCc1ccc2cc(-c3ccccc3)ccc2c1)C(=O)NO [Example 149]

OUTPUT:
1. 33
2. 30
3. 30

Give me zone of inhibition at 20 µg/disc for each of these compounds, listed below.
1. COc1cc(-c2ccccc2)ccc1CN[C@H](C(=O)NO)[C@](C)(O)C(F)F [Example 146]
2. CN1CCN(Cc2ccc(-c3ccc(CCCN[C@H](C(=O)NO)[C@](C)(O)C(F)F)cc3)cc2)CC1 [Example 144]
3. CC(NCCCc1ccc(-c2ccccc2)cc1)(C(=O)NO)C(C)(O)C(F)F (centres unmarked) [Example 10]

OUTPUT:
1: 27; 2: 0; 3: 35

Quick request: zone of inhibition at 20 µg/disc for each listed item, please.
1. C[C@@](O)(C(F)F)[C@H](NCc1ccc(-c2ccccc2)cc1)C(=O)NO [Example 5]
2. C[C@@](O)(C(F)F)[C@H](NC/C=C/c1ccc(-c2ccccc2)cc1)C(=O)NO [Example 147]
3. CC(CCn1ccc(-c2ccc(-n3nccn3)cc2)cc1=O)(C(=O)NO)C(C)(O)C(F)F (centres unmarked) [Example 4]
4. COc1ccc(-c2ccc(CN[C@H](C(=O)NO)[C@](C)(O)C(F)F)cc2)cc1 [Example 142]
5. CC(NCCCc1ccc(-c2ccccc2)cc1)(C(=O)NO)C(O)(CF)CF (centres unmarked) [Example 148]

OUTPUT:
[36, 38, 26, 24, 27]

Attribution: patent US10189786B2
